TARGET: HIF-PHD1 (Homo sapiens)
Sequence (Q96KS0 whole entry): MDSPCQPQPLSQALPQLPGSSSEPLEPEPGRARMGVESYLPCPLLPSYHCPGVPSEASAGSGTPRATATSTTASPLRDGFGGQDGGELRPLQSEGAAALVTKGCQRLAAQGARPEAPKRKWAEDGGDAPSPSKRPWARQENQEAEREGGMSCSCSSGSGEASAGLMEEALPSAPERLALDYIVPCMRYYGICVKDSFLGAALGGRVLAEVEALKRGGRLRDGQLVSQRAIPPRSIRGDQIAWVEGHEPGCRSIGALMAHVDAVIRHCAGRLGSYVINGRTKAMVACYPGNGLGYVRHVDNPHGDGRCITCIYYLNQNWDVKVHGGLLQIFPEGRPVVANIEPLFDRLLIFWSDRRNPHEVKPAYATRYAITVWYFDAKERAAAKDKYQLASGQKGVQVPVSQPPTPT
ASSAY NOTES: Inhibition of the catalytic activity of HIF-PHD1
Assay type: biochemical
TEST PARAMETERS: comparison compounds of WO 2008/030412; read-out: IC50 (nM) HIF-PHD-1
MEASUREMENT NAME: IC50

Input line: Dear colleague, I am looking for the recorded IC50 of the following compound: CC(C)Oc1cccc(CN2CC[C@@]3(C[C@@H]2C)C(=O)N(c2ccccc2)C(=O)N3c2cccc(F)c2)c1 [Egbertson's Example 31]
Output line: > 10000 nM

---

compounds and their reported pIC50
TARGET: HIF-PHD2 (Homo sapiens, UniProt Q9GZT9)
Construct: FLAG-tagged full length PHD2 expressed in and purified from baculovirus-infected Sf9 cells; FLAG; made in house; host or cells: baculovirus-infected Sf9 cells
Sequence (Q9GZT9 whole entry): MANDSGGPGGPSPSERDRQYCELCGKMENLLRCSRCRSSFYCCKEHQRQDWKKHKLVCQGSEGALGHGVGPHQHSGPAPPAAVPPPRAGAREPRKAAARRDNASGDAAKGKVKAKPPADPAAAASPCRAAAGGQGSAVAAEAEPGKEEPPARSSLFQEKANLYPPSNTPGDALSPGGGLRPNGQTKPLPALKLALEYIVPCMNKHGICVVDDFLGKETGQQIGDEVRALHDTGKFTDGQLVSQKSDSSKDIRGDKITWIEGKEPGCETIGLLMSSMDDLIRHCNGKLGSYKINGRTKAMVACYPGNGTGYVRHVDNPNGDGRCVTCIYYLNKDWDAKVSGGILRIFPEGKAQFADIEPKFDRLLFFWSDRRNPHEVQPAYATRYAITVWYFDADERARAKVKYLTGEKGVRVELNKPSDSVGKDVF
ASSAY NOTES: Assay for HIF-PHD2 Catalytic Activity (PHD2 Binding Activity)
Format: biochemical
pIC50: −log10 of the molar value.

Worked examples, 3 compounds total:
- SAMPLE SMILES: "Cc1cccnc1CN1CCC2(CC1)C(=O)N(c1ccc(-c3ccccc3)cc1)C(=O)N2c1ccc(C#N)cn1"
  EXPERIMENTAL VALUE: "7.70 to 9.30"
- SAMPLE SMILES: "COc1ccnc(CN2CCC3(CC2)C(=O)N(c2ccc(-c4ccc(C(=O)O)cc4)nc2)C(=O)N3c2cc(OC)ncn2)c1"
  EXPERIMENTAL VALUE: "7.70 to 9.30"
- SAMPLE SMILES: "COc1ccnc(N2C(=O)N(c3ccc(-c4ccccc4)cc3)C(=O)C23CCN(Cc2nccn2CCC(=O)O)CC3)n1"
  EXPERIMENTAL VALUE: "7.70 to 9.30"

Now look at this entry.
Input line: Dear colleague, I am looking for the recorded pIC50 of the following compound: Cc1cccnc1CN1CCC2(CC1)C(=O)N(c1ccc(-c3ccccc3)cc1)C(=O)N2c1ccncc1
Output line: 7.30 to 7.70
